assay: xn = mol fraction of the nth substance listed, in the solute-free solvent; settings: 293.15 K; x2 = 0.4772
Reported metric: solubility (g/100 g solution)

>  <Molecule>
Nc1cc(-c2ccncc2)c[nH]c1=O + CCO + O

>  <solubility (g/100 g solution)>
0.0129

$$$$
>  <Molecule>
CC(C)C(=O)Nc1ccc([N+](=O)[O-])c(C(F)(F)F)c1 + CCO + O

>  <solubility (g/100 g solution)>
8.03

$$$$
>  <Molecule>
O=C1C=CC(=O)N1c1ccccc1Br + CCO + O

>  <solubility (g/100 g solution)>
8.5

$$$$

(P) O=c1cc(CBr)c2ccccc2[nH]1 + CCO + O
(Q) Nc1ncc(Br)nc1Br + CCO + O
Which value of solubility (g/100 g solution) is greater, the one for P or the one for Q ? Choose, then provide that item's label. Q
